System: CCRIS mutagenicity, Ames/micronucleus/aberration tests
Assay: CCRIS mutagenicity studies
Conditions: Test System: AMES SALMONELLA TYPHIMURIUM; Strain/Indicator: TA98; Metabolic Activation: HAMSTER, LIVER, S-9, AROCLOR 1254 (10%); Method: PREINCUBATION
Activity calls are given as the source filed them. No rule for the calls is given here.
Outcomes you can answer with include only these: Y = active, N = inactive

INSERT INTO measurements (compound, class) VALUES
  ('O=[N+]([O-])c1ccc(O)c([N+](=O)[O-])c1', 'N'),
  ('[N-]=[N+]=[N-]', 'N'),
  ('c1ccc2c(c1)ccc1cc3c(ccc4ccccc43)cc12', 'Y');

Just curious, what result did Cc1ccccc1N get here? N

Just curious, what result did CN(C)CCO get here? N

Just curious, what result did COc1ccc([N+](=O)[O-])cc1N=Nc1c(O)c(C(=O)Nc2cccc([N+](=O)[O-])c2)cc2ccccc12 get here? Y

Just curious, what result did CC(CN1c2ccccc2Sc2ccccc21)N(C)C (stereo not drawn) get here? N

Just curious, what result did CC(=O)/C=C/c1ccc2c(c1)OCO2 get here? N

Just curious, what result did C=C(C)C(=O)OCC(C)C get here? N

Just curious, what result did Nc1ccc(Oc2ccc(N)cc2)cc1 get here? Y

Just curious, what result did CCCCCCCCCCCC(=O)N(CCO)CCO get here? N

Data origin: PubChem BioAssay AID1259407
